tested on: Heterodera glycines eggs; assay: Microwell assay: eggs immersed in compounds, hatch and activity of hatched J2; format: in vivo; details: Heterodera glycines, 168 h; 0.1%; Day 7; read-out: egg hatch suppression compared with the Tween control
PROPERTY_NAME: pest or weed control at 0.1 %

input: Lab request: please report pest or weed control at 0.1 % under test system Heterodera glycines eggs for COC(=O)c1cccc(OC)c1 [M3MOB, Methyl 3-methoxybenzoate]
output: 64%

input: Lab request: please report pest or weed control at 0.1 % under test system Heterodera glycines eggs for O=C(OCc1ccccc1)c1ccccc1 [BB, Benzyl benzoate]
output: 64 to 80%

input: Lab request: please report pest or weed control at 0.1 % under test system Heterodera glycines eggs for C=COC(=O)c1ccccc1 [VB, Vinyl benzoate]
output: 80%

input: Lab request: please report pest or weed control at 0.1 % under test system Heterodera glycines eggs for COC(=O)c1cccc(C)c1 [M3MB, Methyl 3-methylbenzoate]
output: 64 to 80%

input: Lab request: please report pest or weed control at 0.1 % under test system Heterodera glycines eggs for COC(=O)c1ccccc1Cl [M2CB, Methyl 2-chlorobenzoate]
output: 64 to 80%

input: Lab request: please report pest or weed control at 0.1 % under test system Heterodera glycines eggs for CCCOC(=O)c1ccccc1 [nPrB, n-Propyl benzoate]
output: 64 to 80%

input: Lab request: please report pest or weed control at 0.1 % under test system Heterodera glycines eggs for CCCCOC(=O)c1ccccc1 [nBB, n-Butyl benzoate]
output: 64 to 80%

====

Give measured Shoot height Trial 1 for each item. Keep answers brief.
test system: cucumber (Cucumis sativus) plants; test: Greenhouse trial: cucumber plant vigor in treated soil; details: 0.05%; 27 ml per 300 grams soil

input: Lab request: please report Shoot height Trial 1 under test system cucumber (Cucumis sativus) plants for COC(=O)c1ccccc1 [MB, Methyl benzoate]
output: 7.7 ^ab cm

input: Lab request: please report Shoot height Trial 1 under test system cucumber (Cucumis sativus) plants for CCOC(=O)c1ccccc1 [EB, Ethyl benzoate]
output: 7.1 ^ab cm

input: Lab request: please report Shoot height Trial 1 under test system cucumber (Cucumis sativus) plants for COC(=O)c1cccc(C)c1 [M3MB, Methyl 3-methylbenzoate]
output: 6.8 ^ab cm

input: Lab request: please report Shoot height Trial 1 under test system cucumber (Cucumis sativus) plants for C=COC(=O)c1ccccc1 [VB, Vinyl benzoate]
output: 6.7 ^ab cm

====

test system: cucumber (Cucumis sativus) plants; test: Greenhouse trial: cucumber plant vigor in treated soil; conditions: 0.1%; 28 ml per 300 grams soil
PROPERTY_NAME: Shoot height Trial 2

input: Endpoint output: Shoot height Trial 2 of COC(=O)c1cccc(C)c1 [M3MB, Methyl 3-methylbenzoate] . Value?
output: 7.2 ^a cm

input: Endpoint output: Shoot height Trial 2 of COC(=O)c1ccccc1 [MB, Methyl benzoate] . Value?
output: 8.3 ^a cm

input: Endpoint output: Shoot height Trial 2 of C=COC(=O)c1ccccc1 [VB, Vinyl benzoate] . Value?
output: 6.8 ^a cm

input: Endpoint output: Shoot height Trial 2 of CCOC(=O)c1ccccc1 [EB, Ethyl benzoate] . Value?
output: 8.1 ^a cm

====

test system: cucumber (Cucumis sativus) plants; experiment: Greenhouse trial: cucumber plant vigor in treated soil; details: 0.1%; 27 ml per 300 grams soil
Give measured Shoot height Trial 1 for each item. Keep answers brief.

input: Endpoint output: Shoot height Trial 1 of COC(=O)c1ccccc1 [MB, Methyl benzoate] . Value?
output: 7.2 ^ab cm

input: Endpoint output: Shoot height Trial 1 of COC(=O)c1cccc(C)c1 [M3MB, Methyl 3-methylbenzoate] . Value?
output: 6.9 ^ab cm

input: Endpoint output: Shoot height Trial 1 of C=COC(=O)c1ccccc1 [VB, Vinyl benzoate] . Value?
output: 7.2 ^ab cm

input: Endpoint output: Shoot height Trial 1 of CCOC(=O)c1ccccc1 [EB, Ethyl benzoate] . Value?
output: 6.4 ^b cm

====

test system: cucumber (Cucumis sativus) plants; test: Greenhouse trial: cucumber plant vigor in treated soil; conditions: 0.05%; 28 ml per 300 grams soil
PROPERTY_NAME: Shoot fresh weight Trial 2

input: Lab request: please report Shoot fresh weight Trial 2 under test system cucumber (Cucumis sativus) plants for C=COC(=O)c1ccccc1 [VB, Vinyl benzoate]
output: 4.3 ^ab g

input: Lab request: please report Shoot fresh weight Trial 2 under test system cucumber (Cucumis sativus) plants for CCOC(=O)c1ccccc1 [EB, Ethyl benzoate]
output: 4.7 ^a g

input: Lab request: please report Shoot fresh weight Trial 2 under test system cucumber (Cucumis sativus) plants for COC(=O)c1ccccc1 [MB, Methyl benzoate]
output: 3.9 ^ab g

input: Lab request: please report Shoot fresh weight Trial 2 under test system cucumber (Cucumis sativus) plants for COC(=O)c1cccc(C)c1 [M3MB, Methyl 3-methylbenzoate]
output: 4.3 ^ab g

====

tested on: Heterodera glycines eggs; assay: Microwell assay: eggs immersed in compounds, hatch and activity of hatched J2; assay type: in vivo; conditions: 0.1%; hatched J2 per well, about 35 eggs per well
Marks after values point to notes of the source that are not given here.
PROPERTY_NAME: Hatch Day 2

input: Endpoint output: Hatch Day 2 of CCCOC(=O)c1ccccc1 [nPrB, n-Propyl benzoate] . Value?
output: 5.8 ^cd

input: Endpoint output: Hatch Day 2 of CCCCOC(=O)c1ccccc1 [nBB, n-Butyl benzoate] . Value?
output: 5.2 ^cd

input: Endpoint output: Hatch Day 2 of COC(=O)c1cccc(OC)c1 [M3MOB, Methyl 3-methoxybenzoate] . Value?
output: 6.3 ^bcd

input: Endpoint output: Hatch Day 2 of C=COC(=O)c1ccccc1 [VB, Vinyl benzoate] . Value?
output: 3.5 ^d

input: Endpoint output: Hatch Day 2 of COC(=O)c1ccccc1[N+](=O)[O-] [M2NB, Methyl 2-nitrobenzoate] . Value?
output: 9.1 ^abc

input: Endpoint output: Hatch Day 2 of COC(=O)c1cccc(C)c1 [M3MB, Methyl 3-methylbenzoate] . Value?
output: 5.2 ^cd

input: Endpoint output: Hatch Day 2 of COC(=O)c1ccccc1C [M2MB, Methyl 2-methylbenzoate] . Value?
output: 6.6 ^bcd

input: Endpoint output: Hatch Day 2 of CC(C)COC(=O)c1ccccc1 [iBB, iso-Butyl benzoate] . Value?
output: 6.7 ^bcd

input: Endpoint output: Hatch Day 2 of COC(=O)c1ccccc1OC [M2MOB, Methyl 2-methoxybenzoate] . Value?
output: 8.7 ^abcd

input: Endpoint output: Hatch Day 2 of COC(=O)c1ccccc1Cl [M2CB, Methyl 2-chlorobenzoate] . Value?
output: 5.4 ^cd

input: Endpoint output: Hatch Day 2 of CCCCCOC(=O)c1ccccc1 [nPeB, n-Pentyl benzoate] . Value?
output: 7.6 ^bcd

Provenance of the data: patent US20220183287A1
